Values compiled from patent US20260209316A1.

Molecular target: T1, mucin domain-deleted Sudan GP (GPdMuc) (Sudan virus (SUDV), UniProt Q7T9D9 33-632)
T1 construct: also called Sudan GPdMuc; GP(S)dMuc
Assay: BLI competition on Sudan GPdMuc (upper table); competitor mAb166
% inhibition of binding listing for selected binders.
# output: bare number, implied unit %

- BINDER: "antibody 528S (antibody, V domains shown) VH: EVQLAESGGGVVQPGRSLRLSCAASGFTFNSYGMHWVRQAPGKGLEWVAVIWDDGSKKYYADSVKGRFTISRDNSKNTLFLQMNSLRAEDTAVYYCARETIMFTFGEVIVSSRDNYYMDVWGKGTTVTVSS VL: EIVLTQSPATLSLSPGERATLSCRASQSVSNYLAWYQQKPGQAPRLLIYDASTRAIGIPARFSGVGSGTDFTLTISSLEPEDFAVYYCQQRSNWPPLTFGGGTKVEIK"
  UNIT_TAG: "%"
  % inhibition of binding: 82

Now, please, on to the next binder.
Quote % inhibition of binding reported for antibody 315S (antibody, V domains shown) VH: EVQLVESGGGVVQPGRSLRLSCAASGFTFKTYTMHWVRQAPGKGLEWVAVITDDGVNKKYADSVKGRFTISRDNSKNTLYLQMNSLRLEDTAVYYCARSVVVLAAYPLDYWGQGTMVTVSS VL: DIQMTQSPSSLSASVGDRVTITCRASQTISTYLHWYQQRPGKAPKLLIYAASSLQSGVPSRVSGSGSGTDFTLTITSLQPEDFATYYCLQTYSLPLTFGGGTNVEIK please.
-2.64
